Entry source: ChEMBL document CHEMBL1152939

measurement.notes: Antioxidant activity assessed as ABTS radical scavenging activity after 6 mins by cation decolorization assay
Type: functional
pIC50: −log10 of the molar value.
measured.quantity: pIC50

{"columns": ["compound", "measured.quantity", "reported.result"],
 "data": [
  ["CC(=O)O[C@H](C)CC(=O)Oc1c(O)c(-c2ccc(O)cc2)c(OC(=O)C[C@@H](C)OC(C)=O)c(O)c1-c1ccc(O)cc1", "pIC50", 5.09],
  ["CC(=O)O[C@H](C)CC(=O)Oc1c(O)c(-c2ccc(O)cc2)c(OC(=O)C[C@@H](C)O)c(O)c1-c1ccc(O)cc1", "pIC50", 4.22],
  ["CC(=O)Oc1c(O)c(-c2ccc(O)cc2)c(OC(=O)C[C@@H](C)O)c(O)c1-c1ccc(O)cc1", "pIC50", 4.73],
  ["CC(=O)Oc1c(O)c(-c2ccc(O)cc2)c(OC(=O)CCc2ccccc2)c(O)c1-c1ccc(O)cc1", "pIC50", 5.19],
  ["CC(=O)Oc1c(O)c(-c2ccc(O)cc2)c(OC(=O)C[C@@H](C)OC(C)=O)c(O)c1-c1ccc(O)cc1", "pIC50", 5.26],
  ["O=C(O)/C=C/c1ccc(O)c(O)c1", "pIC50", 5.27],
  ["Cc1c(C)c2c(c(C)c1O)CCC(C)(C(=O)O)O2 (stereo not drawn)", "pIC50", 5.10],
  ["CC(=O)Oc1c(O)c(-c2ccc(O)cc2)c(OC(C)=O)c(O)c1-c1ccc(O)cc1", "pIC50", 5.06]
]}

---

pIC50: recorded values
measurement.notes: Antioxidant activity assessed as ABTS radical scavenging activity after 6 mins by cation decolorization assay
Format: functional
pIC50: −log10 of the molar value.

{"columns": ["smiles.representation", "result.operator", "pIC50"],
 "data": [
  ["CCCC(=O)Oc1c(O)c(-c2ccc(O)cc2)c(OC(=O)CCc2ccccc2)c(O)c1-c1ccc(O)cc1", "=", 5.09],
  ["CC(=O)O[C@H](C)CC(=O)Oc1c(O)c(-c2ccc(O)cc2)c(OC(=O)c2ccccc2)c(O)c1-c1ccc(O)cc1", "=", 5.07],
  ["CCCC(=O)Oc1c(O)c(-c2ccc(O)cc2)c(OC(C)=O)c(O)c1-c1ccc(O)cc1", "=", 5.15],
  ["CC(=O)Oc1c(OC(=O)C[C@@H](C)O)c(-c2ccc(O)cc2)c(OC(=O)CCc2ccccc2)c(OC(=O)C[C@@H](C)O)c1-c1ccc(O)cc1", "<", 3.30],
  ["CC(=O)Oc1c(OC(=O)CCc2ccccc2)c(-c2ccc(O)cc2)c(OC(=O)C[C@@H](C)O)c(OC(=O)C[C@@H](C)O)c1-c1ccc(O)cc1", "<", 3.30],
  ["CC(=O)O[C@H](C)CC(=O)Oc1c(O)c(-c2ccc(O)cc2)c(OC(=O)CCc2ccccc2)c(O)c1-c1ccc(O)cc1", "=", 4.87]
]}

---

measurement.notes: Antioxidant activity assessed as ABTS radical scavenging activity after 6 mins by cation decolorization assay
Type: functional

{"columns": ["compound", "unit.name", "result.operator", "IC50"],
 "data": [
  ["CC(=O)Oc1c(OC(=O)C[C@@H](C)O)c(-c2ccc(O)cc2)c(OC(C)=O)c(OC(=O)C[C@@H](C)O)c1-c1ccc(O)cc1", "µM", ">", 500],
  ["C[C@@H](O)CC(=O)Oc1c(O)c(-c2ccc(O)cc2)c(OC(=O)CCc2ccccc2)c(O)c1-c1ccc(O)cc1", "µM", "=", 11.3],
  ["COc1ccc(O)c(C(C)(C)C)c1.COc1ccc(O)cc1C(C)(C)C [BUTYLATED HYDROXYANISOLE]", "µM", "=", 10.7],
  ["O=C(CCc1ccccc1)Oc1c(O)c(-c2ccc(O)cc2)c(OC(=O)CCc2ccccc2)c(O)c1-c1ccc(O)cc1", "µM", "=", 8.02]
]}
